- TARGET: Neutrophil elastase (Homo sapiens)
- Sequence (P08246 whole entry): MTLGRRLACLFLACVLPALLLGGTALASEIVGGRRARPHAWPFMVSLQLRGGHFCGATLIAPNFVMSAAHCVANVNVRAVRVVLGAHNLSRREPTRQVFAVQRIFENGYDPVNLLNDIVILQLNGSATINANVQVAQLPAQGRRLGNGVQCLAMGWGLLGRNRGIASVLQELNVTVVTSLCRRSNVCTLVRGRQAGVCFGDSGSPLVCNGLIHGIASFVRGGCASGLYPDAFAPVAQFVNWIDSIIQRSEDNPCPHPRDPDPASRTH
- ASSAY PROCEDURE: Compound was evaluated for the inhibitory activity against Human leukocyte elastase; […]
MEASURE NAME: pKi
Here pKi is given on a logarithmic scale as minus log10 of the concentration in mol/L.

IN: Please look up its pKi: `CC[C@H]1C(=O)N(C(=O)NCc2ccccc2)[C@H]1Oc1ccc(C(=O)O)cc1`
OUT: 5.25
